# system_tested: T1, recombinant cynomolgus GPC3 (glypican-3) (cynomolgus monkey, UniProt A0A2K5VK50 24-558)
# T1 construct: also called cynoGPC3
# protocol_summary: SPR; Kd on human GPC3 divided by Kd on cynomolgus GPC3
property_name: Kd Fold difference (hu/cyno) (fold)
Write it as a number; the unit fold goes unstated.

What value of Kd Fold difference (hu/cyno) has been reported for the following binder? v40213, H18L6_LC_N33E mAb (antibody, human IgG1, kappa, V domains shown, no number given for this variant) VH: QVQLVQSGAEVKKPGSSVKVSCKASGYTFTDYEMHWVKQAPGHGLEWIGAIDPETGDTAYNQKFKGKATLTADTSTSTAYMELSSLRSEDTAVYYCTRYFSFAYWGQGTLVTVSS VL: EIVLTQSPATLSLSPGERATISCRSSQSLRHSEGNTYLQWYQQKPGQAPRLLIYKVSNRFSGVPARFSGSGSGTDFTLTISSLEPEDFAVYFCYQSKHVPYTFGGGTKVEIKR
1.37

And v40219, H18L6_LC_N33A mAb (antibody, human IgG1, kappa, V domains shown, no number given for this variant) VH: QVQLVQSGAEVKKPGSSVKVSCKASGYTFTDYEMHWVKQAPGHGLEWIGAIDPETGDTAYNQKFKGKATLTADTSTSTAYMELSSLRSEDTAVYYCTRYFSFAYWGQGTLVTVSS VL: EIVLTQSPATLSLSPGERATISCRSSQSLRHSAGNTYLQWYQQKPGQAPRLLIYKVSNRFSGVPARFSGSGSGTDFTLTISSLEPEDFAVYFCYQSKHVPYTFGGGTKVEIKR ?
1.77

And v40216, H18L6_LC_N33R mAb (antibody, human IgG1, kappa, V domains shown, no number given for this variant) VH: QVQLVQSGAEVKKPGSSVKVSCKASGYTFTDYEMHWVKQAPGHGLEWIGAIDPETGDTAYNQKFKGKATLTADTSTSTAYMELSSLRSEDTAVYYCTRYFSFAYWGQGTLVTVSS VL: EIVLTQSPATLSLSPGERATISCRSSQSLRHSRGNTYLQWYQQKPGQAPRLLIYKVSNRFSGVPARFSGSGSGTDFTLTISSLEPEDFAVYFCYQSKHVPYTFGGGTKVEIKR ?
1.82

And v40215, H18L6_LC_N33V mAb (antibody, human IgG1, kappa, V domains shown, no number given for this variant) VH: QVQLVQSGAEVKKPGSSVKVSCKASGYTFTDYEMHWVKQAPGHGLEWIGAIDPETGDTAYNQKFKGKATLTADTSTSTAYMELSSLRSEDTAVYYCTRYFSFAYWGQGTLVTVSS VL: EIVLTQSPATLSLSPGERATISCRSSQSLRHSVGNTYLQWYQQKPGQAPRLLIYKVSNRFSGVPARFSGSGSGTDFTLTISSLEPEDFAVYFCYQSKHVPYTFGGGTKVEIKR ?
1.27

And v40209, H18L6_LC_G34T mAb (antibody, human IgG1, kappa, V domains shown, no number given for this variant) VH: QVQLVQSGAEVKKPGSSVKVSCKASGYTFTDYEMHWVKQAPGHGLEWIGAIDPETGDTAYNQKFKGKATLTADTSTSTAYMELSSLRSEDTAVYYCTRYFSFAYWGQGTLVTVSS VL: EIVLTQSPATLSLSPGERATISCRSSQSLRHSNTNTYLQWYQQKPGQAPRLLIYKVSNRFSGVPARFSGSGSGTDFTLTISSLEPEDFAVYFCYQSKHVPYTFGGGTKVEIKR ?
1.53
